target: CSL (RBPJ) (Mus musculus, UniProt P31266 53-474)
Sequence (P31266 53-474): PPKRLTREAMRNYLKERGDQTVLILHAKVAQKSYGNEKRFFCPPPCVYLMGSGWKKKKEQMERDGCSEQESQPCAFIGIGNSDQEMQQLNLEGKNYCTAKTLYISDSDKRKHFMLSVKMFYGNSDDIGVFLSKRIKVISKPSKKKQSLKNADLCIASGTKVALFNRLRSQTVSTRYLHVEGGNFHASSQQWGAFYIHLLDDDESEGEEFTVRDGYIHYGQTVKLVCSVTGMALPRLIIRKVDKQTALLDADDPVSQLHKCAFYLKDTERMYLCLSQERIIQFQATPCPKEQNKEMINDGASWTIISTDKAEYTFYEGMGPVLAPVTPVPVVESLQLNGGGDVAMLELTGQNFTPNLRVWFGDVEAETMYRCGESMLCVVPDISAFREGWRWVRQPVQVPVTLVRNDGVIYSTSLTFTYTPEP
assay: ITC; K = 5.9 +/- 1.0 x10^5 M-1; n=3; ITC: 50 mM sodium phosphate pH 6.5, 150 mM NaCl, 10 C (10 uM CSL in cell, 100 uM DNA in syringe). EMSA: 150 mM KCl, 50 mM Tris pH 7.4, 1 mM DTT, 2% polyvinyl alcohol, 30 ng/ul poly(dI-dC), on ice 30 min, 25 fmol biotin probe in 5 ul
study-conditions: protein: recombinant; tags: GST tag cleaved off
result-type: Kd

ITC duplex CGTGTGAC (dsDNA) DNA 1: GTTACCGTGTGACAGAAAG DNA 2: CTTTCTGTCACACGGTAAC = 1.72 µM
